Biological target: Free fatty acid receptor 4 (Mus musculus, UniProt Q7TMA4)
Sequence (Q7TMA4 whole entry): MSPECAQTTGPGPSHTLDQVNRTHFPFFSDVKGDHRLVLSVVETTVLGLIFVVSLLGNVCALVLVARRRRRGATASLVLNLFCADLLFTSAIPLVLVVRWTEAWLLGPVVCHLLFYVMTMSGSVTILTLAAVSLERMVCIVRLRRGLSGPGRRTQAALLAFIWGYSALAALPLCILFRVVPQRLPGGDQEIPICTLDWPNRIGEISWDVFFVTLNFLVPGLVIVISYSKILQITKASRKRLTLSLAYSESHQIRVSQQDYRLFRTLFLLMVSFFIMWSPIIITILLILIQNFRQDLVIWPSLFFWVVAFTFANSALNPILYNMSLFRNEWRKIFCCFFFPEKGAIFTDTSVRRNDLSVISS
Experiment: Agonist activity at mouse GPR120 expressed in U2OS cells assessed as induction of beta-arrestin2 recruitment after 90 mins by luminescence assay
Type: cell-based
pEC50: −log10 of the molar value.
test_readout: pEC50

O=C(O)CC1CCC2(CC1)CCN(c1cc(OC(F)(F)F)ccc1Cl)CC2; 7.27
CC1(C)Cc2cc(Cl)cc(N3CCC4(CCC(CC(=O)O)CC4)CC3)c2O1; 5.40
O=C(O)CC1CCC2(CC1)CCN(c1cc(C(F)(F)F)ccn1)CC2; 5.38

a: COc1ccc(Cl)c(N2CCC3(CCC(CC(=O)O)CC3)CC2)c1
b: O=C(O)CC1CCC2(CC1)CCN(c1cc(OC(F)(F)F)ccc1F)CC2
q: Quick check, higher pEC50 between a and b ? Please indicate the selected item by its label.
a: b

----------
Biological target: Free fatty acid receptor 1 (Homo sapiens, UniProt O14842)
Sequence (O14842 whole entry): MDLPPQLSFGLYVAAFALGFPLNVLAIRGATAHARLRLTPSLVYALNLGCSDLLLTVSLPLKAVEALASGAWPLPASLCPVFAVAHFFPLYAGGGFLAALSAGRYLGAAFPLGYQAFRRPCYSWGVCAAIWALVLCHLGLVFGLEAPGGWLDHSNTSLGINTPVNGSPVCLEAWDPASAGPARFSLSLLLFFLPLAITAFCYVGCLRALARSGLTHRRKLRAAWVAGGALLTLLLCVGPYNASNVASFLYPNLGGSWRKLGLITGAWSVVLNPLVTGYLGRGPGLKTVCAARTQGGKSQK
Experiment: Agonist activity at human GPR40 expressed in HEK293 cells assessed as induction of IP1 accumulation after 60 mins by HTRF assay
Format: functional, cell-based
test_readout: EC50

Solved entries (count: 10):
CC1(C)Cc2cc(Cl)cc(N3CCC4(CCC(CC(=O)O)CC4)CC3)c2O1; > 10 µM
O=C(O)CC1CCC2(CC1)CCN(c1cc(OC(F)(F)F)ccc1Cl)CC2; > 10 µM
N#Cc1ccc(OC(F)(F)F)cc1N1CCC2(CCC(CC(=O)O)CC2)CC1; 2.5 µM
O=C(O)CC1CCC2(CC1)CCN(c1ccccc1Cl)CC2; > 10 µM
O=C(O)CC1CCC2(CC1)CCN(c1cc(Cl)cc(Cl)c1)CC2; 6.3 µM
O=C(O)CC1CCC2(CC1)CCN(c1cc(C(F)(F)F)ccn1)CC2; > 10 µM
O=C(O)CC1CCC2(CC1)CCN(c1cc(C(F)(F)F)ccc1F)CC2; > 10 µM
O=C(O)CC1CCC2(CC1)CCN(c1cc(F)cc(Cl)c1F)CC2; 8.1 µM
COc1ccc(Cl)c(N2CCC3(CCC(CC(=O)O)CC3)CC2)c1; > 10 µM
N#Cc1cc(SC(F)(F)F)cc(N2CCC3(CCC(CC(=O)O)CC3)CC2)c1; > 10 µM

q: Fill: EC50 (Free fatty acid receptor 1 (Homo sapiens, UniProt O14842)) for this compound `O=C(O)CC1CCC2(CC1)CCN(c1cc(OC(F)(F)F)ccc1F)CC2`
a: > 10 µM

----------
Assay: Volume of distribution at steady state in rat at 1 mg/kg, iv or 2 mg/kg, po by LC/MS/MS analysis
Type: ADME, organism-based
Conditions: in vivo, read-out: Vdss
test_readout: Vd (L/kg)
State just the number; it will be interpreted in L/kg.

q: Read off the recorded Vd for `O=C(O)CC1CCC2(CC1)CCN(c1cc(OC(F)(F)F)ccc1Cl)CC2`
a: 0.4
